Documented EC50 of shedding inhibition across a set of binders
Target: T1, MICA*008 on MEL-JUSO cells (human, UniProt Q29983 24-317)
T1 chain: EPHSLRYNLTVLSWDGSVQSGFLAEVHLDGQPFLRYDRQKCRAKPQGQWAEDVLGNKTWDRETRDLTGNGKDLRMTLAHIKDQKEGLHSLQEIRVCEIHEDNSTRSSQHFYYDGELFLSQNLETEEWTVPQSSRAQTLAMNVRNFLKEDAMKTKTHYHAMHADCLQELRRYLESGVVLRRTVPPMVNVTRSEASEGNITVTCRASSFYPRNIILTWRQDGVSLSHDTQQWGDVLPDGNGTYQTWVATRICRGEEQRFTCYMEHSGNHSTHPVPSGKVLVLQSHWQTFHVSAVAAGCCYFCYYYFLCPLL
Test: cell-based or functional assay
Property: EC50 of shedding inhibition

1) 12H10 (antibody, V domains shown, Mouse variable domains; constant regions differ by assay) VH: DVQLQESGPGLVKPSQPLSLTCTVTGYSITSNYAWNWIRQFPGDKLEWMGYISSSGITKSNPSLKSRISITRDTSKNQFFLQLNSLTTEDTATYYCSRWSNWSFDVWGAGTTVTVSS VL: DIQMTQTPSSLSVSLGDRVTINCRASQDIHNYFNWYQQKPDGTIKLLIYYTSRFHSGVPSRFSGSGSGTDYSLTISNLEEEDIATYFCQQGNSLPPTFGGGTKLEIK; 0.0103 µg/mL
2) 20G11 (antibody, V domains shown, Mouse hybridoma antibody; constant regions differ by assay) VH: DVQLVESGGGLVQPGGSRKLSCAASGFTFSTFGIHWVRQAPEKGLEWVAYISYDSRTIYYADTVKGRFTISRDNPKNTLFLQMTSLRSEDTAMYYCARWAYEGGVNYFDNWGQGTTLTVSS VL: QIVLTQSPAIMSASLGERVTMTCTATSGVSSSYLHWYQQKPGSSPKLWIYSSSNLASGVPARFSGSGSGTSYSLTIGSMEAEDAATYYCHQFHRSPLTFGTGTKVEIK; 0.0285 µg/mL
3) 18G3 (antibody, V domains shown, Mouse variable domains; constant regions differ by assay) VH: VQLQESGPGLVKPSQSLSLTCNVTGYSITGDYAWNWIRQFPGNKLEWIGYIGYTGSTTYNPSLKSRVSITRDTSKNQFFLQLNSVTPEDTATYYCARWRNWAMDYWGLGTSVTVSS VL: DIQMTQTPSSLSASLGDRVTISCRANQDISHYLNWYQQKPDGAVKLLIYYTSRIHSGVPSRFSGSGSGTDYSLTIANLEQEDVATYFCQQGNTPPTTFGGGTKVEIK; 0.0191 µg/mL
